Values compiled from patent US9364479B2.

Experiment: in vivo
Conditions: female, dog, po, 1000 mg/kg
Procedure: The nonclinical Pharmacokinetics (PK) of XL-647 was studied in mice, rats, dogs, and monkeys. Animals were dosed either once or daily over several days, as described in Table 21 and 22 below. A summary of results can also be found in Tables 21 and 22 below. […] Mean tmax values were approximately 4 to 8 hours, and plasma terminal half-lives ranged from 9.41 to 20.9 hours.
recorded.metric: half-life (h)
Just the number please, in h, no unit attached.

**Query** Which half-life is listed for COc1cc2c(Nc3ccc(Cl)c(Cl)c3F)ncnc2cc1OC[C@@H]1C[C@@H]2CN(C)C[C@@H]2C1 [XL-647] ?
**Result** 16.1
